Listing of entries alongside the reported EC50 (nM) of reporter genes.
Target: T1, human PVRIG on Jurkat-hPVRIG cells (human, UniProt Q6DKI7 41-326)
T1 sequence (looked up): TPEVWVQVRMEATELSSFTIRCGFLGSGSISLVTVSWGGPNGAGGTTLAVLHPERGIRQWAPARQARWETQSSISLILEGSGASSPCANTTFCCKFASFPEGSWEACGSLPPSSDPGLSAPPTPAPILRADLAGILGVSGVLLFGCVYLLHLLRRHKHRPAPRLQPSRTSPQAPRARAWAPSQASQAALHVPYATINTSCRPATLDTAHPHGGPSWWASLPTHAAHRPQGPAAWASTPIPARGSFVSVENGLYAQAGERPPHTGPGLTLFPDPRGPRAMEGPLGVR
Test: cell-based or functional assay

>  <BINDER>
Hab43F7C9.12 (antibody, V domains shown, Humanized antibody; also called Hab43F7C9-VH.1d + Hab43F7C9-VL.1c; 43H7C9.12) VH: QVQLQESGPGLVKPSETLSLTCTVSGYSISSDYAWNWIRQPPGKGLEWIGYIRYNGNTNYNPSLKSRVTISVDTSKNQFSLKLSSVTAADTAVYYCAIIYYDYDGFVYWGQGTTVTVSS VL: DIQMTQSPSSLSASVGDRVTITCRASQNVYENLHWYQQKPGKAPKLLIKFASDSISGVPSRFSGSGSGTDFTLTISSLQPEDFATYYCLQLYSTPYTFGGGTKLEIK

>  <EC50 (nM) of reporter genes>
0.0651

$$$$
>  <BINDER>
Hab1B10E8.6 (antibody, V domains shown, Humanized antibody; also called Hab1B10E8-VH.1b + Hab1B10E8-VL.1b) VH: QVQLVQSGAEVKKPGASVKVSCKASGYSFPSYWMHWVRQAPGQGLEWIGEINPSNGLTNYNEQFRNRVTMTVDTSTSTVYMELSSLRSEDTAVYYCARHHGSTYYALDSWGQGTLVTVSS VL: DIVMTQSPDSLAVSLGERATINCKSSQSLLNSINQKNFLAWYQQKPGQPPKLLVYFASTRESGVPDRFSGSGSGTDFTLTISSLQAEDVAVYFCQQHYSTPPTFGGGTKLEIK

>  <EC50 (nM) of reporter genes>
0.184

$$$$
>  <BINDER>
Hab21F10C10.12 (antibody, V domains shown, Humanized antibody; also called Hab21F10C10-VH.1d + Hab21F10C10-VL.1c) VH: QVQLVQSGAEVKKPGASVKVSCKASGYTFINNFIEWVRQAPGQGLEWMGVINPGSGDANYAQKFQGRVTMTRDTSISTAYMELSRLRSDDTAVYYCASHWLAYWGQGTTVTVSS VL: EIVMTQSPPTLSLSPGERVTLSCRSSQSLLSSGNQKNYLSWYQQKPGQAPRLLIYGASTRETGIPARFSGSGSGTDFTLTISSLQPEDFAVYYCQNGHFYPYTFGGGTKLEIK

>  <EC50 (nM) of reporter genes>
0.164

$$$$
>  <BINDER>
SRF813-IgG1 (antibody, V domains shown) VH: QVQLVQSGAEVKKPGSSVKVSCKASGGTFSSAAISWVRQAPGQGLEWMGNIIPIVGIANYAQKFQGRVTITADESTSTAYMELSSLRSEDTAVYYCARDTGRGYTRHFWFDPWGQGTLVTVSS VL: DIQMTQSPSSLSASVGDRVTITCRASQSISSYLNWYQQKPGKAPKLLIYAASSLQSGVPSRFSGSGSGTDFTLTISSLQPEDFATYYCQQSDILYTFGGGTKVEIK

>  <EC50 (nM) of reporter genes>
0.963

$$$$
